Reported values of Kd for individual entries
Biological target: T1, SARS-CoV-2 Receptor Binding Domain (RBD) protein (SARS-CoV-2, UniProt P0DTC2 319-541)
T1 construct: also called Sars-Cov-2 (COV2)
Assay: SPR (Carterra LSA); scFv captured by anti-V5, RBD as analyte
State the result as a value with its unit after it.

BINDER	VALUE
COVID19_P14_E07 (scFv, V domains shown) VH: QVQLVQSGAEVKKPGSSVKVSCKASGYTFINYDINWVRQAPGQGLEWMGGITPIFGTANYAQKFQGRVTITADESTSTAYMELSSLRSEDTAVYYCARDTVMGGMDVWGQGTLVTVSS VL: SSYVLTQPPSVSVAPGKTARITCGGNNIGSKSVHWYQQKPGQAPVLVIYYDSDRPSGIPERFSGSNSGNTATLTISRVEAGDEADYYCQVWDSHSDYVFGGGTKLTVLA	5.67 nM

Recall and state the measured Kd for COVID19_P01_H07 (scFv, V domains shown) VH: QVQLVQSGAEVKKPGSSVKVSCKASGYSFNNYDLHWVRQAPGQGLEWMGGIIPIFDTANYAQKFQGRVTITADESTSTAYMELSSLRSEDTAVYYCALETVMGGMVKWGQGTLVTVSS VL: SSYVLTQPPSVSVAPGKTARITCGGNNIGSKSVHWYQQKPGQAPVLVIYYDSDRPSGIPERFSGSNSGNTATLTISRIEAGDEADYYCQVWDSSGDYVFGGGTKLTVLA . 0.81 nM
